- assay.system: r-P2Y6 (Rattus norvegicus, UniProt Q63371)
- Construct: host or cells: human 1321N1 astrocytoma cells, stably transfected
- Sequence (Q63371 whole entry): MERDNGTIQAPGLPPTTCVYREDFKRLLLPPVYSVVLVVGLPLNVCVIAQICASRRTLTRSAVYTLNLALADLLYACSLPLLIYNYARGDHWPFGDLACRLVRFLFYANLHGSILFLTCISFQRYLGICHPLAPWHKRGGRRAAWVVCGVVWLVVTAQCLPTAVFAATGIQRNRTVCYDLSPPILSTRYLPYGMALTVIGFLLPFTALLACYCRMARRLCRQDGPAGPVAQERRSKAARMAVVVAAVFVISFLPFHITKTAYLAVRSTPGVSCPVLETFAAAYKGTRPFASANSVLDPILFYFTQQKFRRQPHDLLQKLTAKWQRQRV
- assay.text: Calcium mobilization assay, r-P2Y6 transfected 1321N1 astrocytoma cells
- Assay type: cell-based
- assay.conditions: 1321-N1; final conc of 100 μM; 100 μM of UDP
Hi, to clarify the labels: T covers inhibition at 100 µM from 30% upward, F covers anything below 30%.

Nc1nc2cc(Cl)ccc2n1C(=O)NS(=O)(=O)c1ccc(Cl)cc1 [1i]	T
O=C(NS(=O)(=O)c1ccc([N+](=O)[O-])cc1)n1c(-c2ccccc2)nc2ccccc21 [1o]	T
Cc1ccc(S(=O)(=O)NC(=O)n2c(N)nc3cc([N+](=O)[O-])ccc32)cc1 [1b]	F
Cc1ccc(S(=O)(=O)NC(=O)n2c(N)nc3ccccc32)cc1 [1w]	T
Cc1ccc([N+](=O)[O-])cc1S(=O)(=O)NC(=O)n1c(N)nc2ccccc21 [1g]	T
COc1ccc(S(=O)(=O)NC(=O)n2c(OC)nc3ccccc32)cc1 [1u]	F
Nc1nc2ccccc2n1C(=O)NS(=O)(=O)c1ccc(-c2ccccc2)cc1 [1y]	F
Nc1nc2cc(Cl)ccc2n1C(=O)NS(=O)(=O)c1cc(Cl)cc(Cl)c1O [1h]	T
O=C(NS(=O)(=O)c1ccc(-c2ccccc2)cc1)n1c(-c2ccccc2)nc2ccccc21 [1l]	T
Cc1ccc(S(=O)(=O)NC(=O)n2c(N)nc3cc(Cl)ccc32)cc1 [1x]	T

###

- assay.system: h-P2Y2 (Homo sapiens, UniProt P41231)
- Construct: host or cells: human 1321N1 astrocytoma cells, stably transfected
- Sequence (P41231 whole entry): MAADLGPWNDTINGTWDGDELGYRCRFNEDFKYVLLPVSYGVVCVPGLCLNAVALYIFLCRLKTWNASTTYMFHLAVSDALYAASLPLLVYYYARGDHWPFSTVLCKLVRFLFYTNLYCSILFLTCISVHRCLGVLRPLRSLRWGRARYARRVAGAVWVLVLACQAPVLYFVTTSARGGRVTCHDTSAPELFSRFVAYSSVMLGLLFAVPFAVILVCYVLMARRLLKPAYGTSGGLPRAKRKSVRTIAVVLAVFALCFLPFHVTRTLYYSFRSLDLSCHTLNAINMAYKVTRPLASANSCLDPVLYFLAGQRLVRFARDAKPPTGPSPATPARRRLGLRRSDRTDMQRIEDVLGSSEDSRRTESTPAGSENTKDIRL
- assay.text: Calcium mobilization assay, h-P2Y2 transfected 1321N1 astrocytoma cells
- Format: cell-based
- assay.conditions: Ca2+ mobilization inhibition, transfected 1321N1 cells, 500 μM ATP; read-out: IC50 ± SEM h-P2Y2
pIC50: −log10 of the molar value.
test.readout: pIC50

Nc1nc2cc(Cl)ccc2n1C(=O)NS(=O)(=O)c1ccc([N+](=O)[O-])cc1	4.95
O=C(NS(=O)(=O)c1ccccc1)n1c(Cl)nc2ccccc21	4.87
Nc1nc2ccccc2n1C(=O)NS(=O)(=O)c1ccc(Cl)cc1	5.08

###

test.readout: melting point

O=C(NS(=O)(=O)c1ccc(-c2ccccc2)cc1)n1c(-c2ccccc2)nc2ccccc21 [1l]	133 to 135 °C
Nc1nc2ccccc2n1C(=O)NS(=O)(=O)c1cc(Cl)cc(Cl)c1O [1e]	115 to 117 °C
O=C(NS(=O)(=O)c1ccc(Cl)cc1)n1c(Cl)nc2ccccc21 [1s]	180 to 182 °C
Cc1ccc([N+](=O)[O-])cc1S(=O)(=O)NC(=O)n1c(N)nc2cc(Cl)ccc21 [1j]	144 to 146 °C
O=C(NS(=O)(=O)c1ccccc1)n1c(Cl)nc2ccccc21 [1q]	179 to 181 °C
O=C(NS(=O)(=O)c1ccccc1)n1c(-c2ccccc2)nc2ccccc21 [1m]	154 to 156 °C
Nc1nc2cc(Cl)ccc2n1C(=O)NS(=O)(=O)c1ccc(Cl)cc1 [1i]	129 to 131 °C
O=C(NS(=O)(=O)c1ccc([N+](=O)[O-])cc1)n1c(Cl)nc2ccccc21 [1t]	166 to 168 °C
Nc1nc2ccccc2n1C(=O)NS(=O)(=O)c1ccc(-c2ccccc2)cc1 [1y]	176 to 178 °C

###

- assay.system: t-P2Y1 (Meleagris gallopavo, UniProt P49652)
- Construct: host or cells: human 1321N1 astrocytoma cells, stably transfected
- Sequence (P49652 whole entry): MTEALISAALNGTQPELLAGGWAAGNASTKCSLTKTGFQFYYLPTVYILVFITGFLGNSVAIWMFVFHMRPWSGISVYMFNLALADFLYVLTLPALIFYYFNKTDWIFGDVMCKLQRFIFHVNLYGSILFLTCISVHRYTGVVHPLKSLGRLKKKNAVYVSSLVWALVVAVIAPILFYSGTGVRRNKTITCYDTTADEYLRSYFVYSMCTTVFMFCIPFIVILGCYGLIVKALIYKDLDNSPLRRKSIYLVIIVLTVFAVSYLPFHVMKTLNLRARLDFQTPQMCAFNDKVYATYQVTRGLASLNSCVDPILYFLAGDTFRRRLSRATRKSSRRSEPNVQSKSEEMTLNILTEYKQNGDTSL
- assay.text: Calcium mobilization assay, t-P2Y1 transfected 1321N1 astrocytoma cells
- Assay type: cell-based
- assay.conditions: Ca2+ mobilization inhibition, transfected 1321N1 cells, 100 μM ADP; read-out: IC50 ± SEM t-P2Y1
test.readout: IC50 (µM)

Cc1ccc(S(=O)(=O)NC(=O)n2c(N)nc3cc(Cl)ccc32)cc1 [1x]	10
Cc1ccc([N+](=O)[O-])cc1S(=O)(=O)NC(=O)n1c(N)nc2ccccc21 [1g]	11.2
Cc1ccc([N+](=O)[O-])cc1S(=O)(=O)NC(=O)n1c(N)nc2cc(Cl)ccc21 [1j]	13.4
Cc1ccc(C(=O)Nc2ccc(S(=O)(=O)O)c3cc(S(=O)(=O)O)cc(S(=O)(=O)O)c23)cc1NC(=O)c1cccc(NC(=O)Nc2cccc(C(=O)Nc3cc(C(=O)Nc4ccc(S(=O)(=O)O)c5cc(S(=O)(=O)O)cc(S(=O)(=O)O)c45)ccc3C)c2)c1 [Suramin, reference compound]	0.15
COc1ccc(S(=O)(=O)NC(=O)n2c(Cl)nc3ccccc32)cc1 [1p]	5.59
O=C(NS(=O)(=O)c1ccc([N+](=O)[O-])cc1)n1c(Cl)nc2ccccc21 [1t]	6.04
Nc1nc2cc(Cl)ccc2n1C(=O)NS(=O)(=O)c1ccc([N+](=O)[O-])cc1 [1k]	12.4
O=C(NS(=O)(=O)c1ccc(Cl)cc1)n1c(Cl)nc2ccccc21 [1s]	3.11
Nc1nc2cc(Cl)ccc2n1C(=O)NS(=O)(=O)c1cc(Cl)cc(Cl)c1O [1h]	0.19
O=C(NS(=O)(=O)c1ccc(-c2ccccc2)cc1)n1c(Cl)nc2ccccc21 [1r]	23.4
O=C(NS(=O)(=O)c1ccc(Cl)cc1)n1c(-c2ccccc2)nc2ccccc21 [1n]	5.69
